Let's look at some compounds and their measured remaining activity at 20 µM.
- Study target: HMGCR (TM1-8)-GFP (Cricetulus griseus, UniProt P00347)
- Sequence (P00347 1-346): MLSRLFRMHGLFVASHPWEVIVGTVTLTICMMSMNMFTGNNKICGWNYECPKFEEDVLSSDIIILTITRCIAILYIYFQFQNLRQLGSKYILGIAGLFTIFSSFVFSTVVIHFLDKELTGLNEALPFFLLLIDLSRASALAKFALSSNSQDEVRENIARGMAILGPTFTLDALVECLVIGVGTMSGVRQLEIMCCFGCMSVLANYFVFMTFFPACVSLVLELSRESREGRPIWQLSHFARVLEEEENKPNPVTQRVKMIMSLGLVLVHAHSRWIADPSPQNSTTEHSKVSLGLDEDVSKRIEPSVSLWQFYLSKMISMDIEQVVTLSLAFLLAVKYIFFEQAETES
- Method description: HMGCR (TM1-8)-GFP fluorescent assay (high-content imaging) in CHG cells
- Test settings: 16 h, read-out: HMGCR (TM1-8)-GFP fluorescent intensity, mean
Entry rule: numbers only, all in %.

Study these solved cases before continuing.
Compound	remaining activity at 20 µM [%]
CC(C)CCC[C@@H](C)[C@H]1CCC2C3C(CC[C@@]21C)[C@@]1(C)CC[C@H](O)C(C)(C)C1=C[C@H]3O (some centres unmarked)	37.2
CC(C)CCC[C@@H](C)[C@H]1CCC2C3C(CC[C@@]21C)[C@@]1(C)CC[C@H](O)C(C)(C)C1=C[C@H]3N (some centres unmarked)	106
CC(C)CCC[C@@H](C)[C@H]1CCC2C3C(=NO)C=C4C(C)(C)[C@@H](O)CC[C@]4(C)C3CC[C@@]21C (some centres unmarked)	65.8
CC(C)CCC[C@@H](C)[C@H]1CCC2C3C(=O)C=C4C(C)(C)[C@@H](O)CC[C@]4(C)C3CC[C@@]21C (some centres unmarked)	85
C=CCC1(CC=C)C2=CCC3C(CC[C@@]4(C)C3CC[C@@H]4[C@H](C)CCCC(C)C)[C@@]2(C)CC[C@@H]1O (some centres unmarked)	88.7
CCC1(CCOC)C2=CCC3C(CCC4(C)C(C(C)CCCC(C)C)CCC34)C2(C)CCC1O (centres unmarked)	97.4
CC(C)CCC[C@@H](C)[C@H]1CC[C@H]2[C@@H]3[C@@H](O)C=C4C(C)(C)[C@@H](O)CC[C@]4(C)[C@H]3CC[C@]12C [Compound 35, 4,4-Dimethyl 7β-hydroxyl cholesterol]	20
CC(C)CCC[C@@H](C)[C@H]1CCC2C3CC=C4C5(CCCCC5)[C@@H](O)CC[C@]4(C)C3CC[C@@]21C (some centres unmarked)	98.6
COCCC1(CCOC)C2=CCC3C(CC[C@@]4(C)C3CC[C@@H]4[C@H](C)CCCC(C)C)[C@@]2(C)CC[C@@H]1O (some centres unmarked)	106
CCC1(CC)C2=CCC3C(CC[C@@]4(C)C3CC[C@@H]4[C@H](C)CCCC(C)C)[C@@]2(C)CC[C@@H]1O (some centres unmarked)	91.4

Consider the additional compound presented here.
So the reported remaining activity at 20 µM for CC(C)CCC[C@@H](C)[C@H]1CC[C@H]2[C@@H]3CC=C4C(C)(C)[C@@H](O)CC[C@]4(C)[C@H]3CC[C@]12C , on HMGCR (TM1-8)-GFP (Cricetulus griseus, UniProt P00347), turned out to be 47.9

====

Here the recorded remaining activity at 2.5 µM is given for each entry.
- Study target: HMGCR (TM1-8)-GFP (Cricetulus griseus)
- Method description: HMGCR (TM1-8)-GFP fluorescent assay (high-content imaging) in CHG cells
- Test settings: read-out: Mean (HMGCR (TM1-8)-GFP signal relative to 0 μM = 100)
Include the unit right after the number.

Known remaining activity at 2.5 µM results, listed for orientation:
>>> df
                                   compound  result_value
0  CCC(O)CC[C@@H](C)C1CCC2C3C(CC[C@@]21C)[C@@]1(C)CC[C@H](O)C(C)(C)C1=C[C@@H]3O (some centres unmarked)         52.2%
1  C=CCC(O)(CC=C)CCCC[C@@H](C)C1CCC2C3C(CC[C@@]21C)[C@@]1(C)CC[C@H](O)C(C)(C)C1=C[C@@H]3O (some centres unmarked)         37.2%
2  CCC(O)(CC)CCC[C@@H](C)C1CCC2C3C(CC[C@@]21C)[C@@]1(C)CC[C@H](O)C(C)(C)C1=C[C@@H]3O (some centres unmarked)         18.3%
3  C=CCC(O)(CC=C)CCCCC[C@@H](C)C1CCC2C3C(CC[C@@]21C)[C@@]1(C)CC[C@H](O)C(C)(C)C1=C[C@@H]3O (some centres unmarked)         62.7%
4  CCC(O)CCCC[C@@H](C)C1CCC2C3C(CC[C@@]21C)[C@@]1(C)CC[C@H](O)C(C)(C)C1=C[C@@H]3O (some centres unmarked)         29.4%

Lab note: measured remaining activity at 2.5 µM of C=CCC(O)(CC=C)CC[C@@H](C)C1CCC2C3C(CC[C@@]21C)[C@@]1(C)CC[C@H](O)C(C)(C)C1=C[C@@H]3O (some centres unmarked) was 68.2%

Item: C[C@H](CCCCO)C1CCC2C3C(CC[C@@]21C)[C@@]1(C)CC[C@H](O)C(C)(C)C1=C[C@@H]3O (some centres unmarked) | remaining activity at 2.5 µM: 62.6%

The compound CCC(O)CCC[C@@H](C)C1CCC2C3C(CC[C@@]21C)[C@@]1(C)CC[C@H](O)C(C)(C)C1=C[C@@H]3O (some centres unmarked) showed remaining activity at 2.5 µM equal to 26.7%

Per the records, this compound ( CCC(O)(CC)CCCCC[C@@H](C)C1CCC2C3C(CC[C@@]21C)[C@@]1(C)CC[C@H](O)C(C)(C)C1=C[C@@H]3O (some centres unmarked) ) has remaining activity at 2.5 µM equal to 26.4%

Entry C[C@H](CCCCC(=O)O)C1CCC2C3C(CC[C@@]21C)[C@@]1(C)CC[C@H](O)C(C)(C)C1=C[C@@H]3O (some centres unmarked) ; remaining activity at 2.5 µM = 87%

What the record says about C[C@H](CCCCCCO)C1CCC2C3C(CC[C@@]21C)[C@@]1(C)CC[C@H](O)C(C)(C)C1=C[C@@H]3O (some centres unmarked) : remaining activity at 2.5 µM is 35.8%

// remaining activity at 2.5 µM lookup, compound = C=CCC(O)CCCC[C@@H](C)C1CCC2C3C(CC[C@@]21C)[C@@]1(C)CC[C@H](O)C(C)(C)C1=C[C@@H]3O (some centres unmarked) , result: 23.5%

Kindly note the recorded remaining activity at 2.5 µM for C=CCC(O)CC[C@@H](C)C1CCC2C3C(CC[C@@]21C)[C@@]1(C)CC[C@H](O)C(C)(C)C1=C[C@@H]3O (some centres unmarked) , which is 40.4%

The measured remaining activity at 2.5 µM associated with CC(O)CCC[C@@H](C)C1CCC2C3C(CC[C@@]21C)[C@@]1(C)CC[C@H](O)C(C)(C)C1=C[C@@H]3O (some centres unmarked) reads 44.4%
